assayed_target: bovine FcRn complex (bovine) (UniProt F6R592)
Sequence (chain, as listed by the source, chain 1 of 2): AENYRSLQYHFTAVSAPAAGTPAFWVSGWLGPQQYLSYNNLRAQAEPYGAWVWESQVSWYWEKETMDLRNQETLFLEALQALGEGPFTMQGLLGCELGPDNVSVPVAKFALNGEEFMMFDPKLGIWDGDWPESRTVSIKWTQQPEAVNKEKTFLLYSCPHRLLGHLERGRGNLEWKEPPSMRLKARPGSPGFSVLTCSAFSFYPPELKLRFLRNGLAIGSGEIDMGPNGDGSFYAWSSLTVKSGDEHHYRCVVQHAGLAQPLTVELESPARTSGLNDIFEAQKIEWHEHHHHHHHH
Sequence (P01888 other isoform, or with tags, fused parts or gaps, chain 2 of 2): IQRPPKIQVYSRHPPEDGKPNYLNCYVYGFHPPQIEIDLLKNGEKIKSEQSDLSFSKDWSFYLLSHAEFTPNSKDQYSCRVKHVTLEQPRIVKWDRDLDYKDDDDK
assay_name: SPR (Biacore 8K+), pH 5.9, 25 C; FcRn captured by anti-His, IgG as analyte; 1:1 kinetic model
reported_property: Fold increase over wild-type KD (fold)
Field format: number, assumed fold, no unit text.

Data request, read-out Fold increase over wild-type KD, for Bovine N434Y (antibody, part only; not given: variable domains and light chain, IgG1, not shown: another chain or arm of the molecule) Fc: PPELPGGPSVFIFPPKPKDTLTISGTPEVTCVVVDVGHDDPEVKFSWFVDNVEVNTATTKPREEQFNSTYRVVSALRIQHQDWTGGKEFKCKVHNEGLPAPIVRTISRTKGPAREPQVYVLAPPQEELSKSTVSLTCMVTSFYPDYIAVEWQRNGQPESEDKYGTTPPQLDADSSYFLYSKLRVDRNSWQEGDTYTCVVMHEALHYHYTQKSTSKSA
42
